- PARTICULARS: in acetone, 288.15 K

# SMILES_STRUCTURE, solubility (mole fraction)
records = [
    ("c1ccc2[nH]cnc2c1", 0.022),
]

* * *

- PARTICULARS: in acetonitrile, 308.15 K

# SMILES_STRUCTURE, solubility (mole fraction)
measured = [
    ("c1ccc2[nH]cnc2c1", 0.0123),
]

* * *

- PARTICULARS: in isopropyl acetate, 318.15 K

# SMILES_STRUCTURE, solubility (mole fraction)
measured = [
    ("c1ccc2[nH]cnc2c1", 0.0191),
]

* * *

- PARTICULARS: in isopropanol, 298.15 K

# SMILES_STRUCTURE, solubility (mole fraction)
measured = [
    ("c1ccc2[nH]cnc2c1", 0.0852),
]
